src = the nanobody polyreactivity screen of Harvey et al. (2022)

test: yeast display, Sf9 membrane polyspecificity reagent, FACS + sequencing; frameworks hold sequencing errors
RECORDED ENDPOINT: polyreactivity (PSR sort gate)

SEQUENCE STRING	REPORTED
QVQLVESGGGLVQAGGSLRLSCAASGLTFDSNVMGWYRQAPGKERELVAAITSSGRTYYADSVKGRFTISRDNEKNTVYLQMNSLKPEDTAVYYCAARNLAYTRKGYYYWGQGTQVTVSS	high polyreactivity
QVQLVESGGGLVQSGASLRLSCAASGRISRFNAMGWYRQAPGKERELVAAISSGGSTHYADSVKGRFTISRDNAKITVYLQMNSLKPEDTAVYYCAASVYRWWRLEAYYYWGQGSQVTVSS	high polyreactivity
QVQLVESGGGLVQAGGSLRLSSAASGIIFFFYAMGWYRQAPGKERELVAVITGSGDSTFYADSVKGRFTISRDNAKNTVYLQMNSLKPEDTAVYYCNARQVSGGYYYWGQGTQVTVSS	low polyreactivity
QVQLVESGGGLVQAGGSLRLSCAASGFIFLGNVMGWYRQAPGKERELVAAINWSDGSTYYADSVKGRFTISRDNAKNTVYLQMNSLKPEDTAVYYCNVDAGVEGGTVDYWGQGTQVTVSS	low polyreactivity

With those in mind, consider the next sequence.
// query Tell me the measured polyreactivity (PSR sort gate) of QVQLVESGGGLVKAGGSLRLSCAASGSIFTRNAMGWYRQAPGKERELVAAIRSRGGSTYYADSVKGRFTISRDNAKNTVYLQMNSLKPEDNAVYYCAKKDNTYIFDYWGQGTQVTVSS , please.
// result low polyreactivity
